- assayNotes: Tissue distribution of THP, DHC and protopine in rat tissues after gastric gavage administration (HPLC-UV, non-compartmental analysis)
- Type: in vivo, Wistar male rats
- experimentalParameters: male, Wistar, po, 6.45 mg/kg, rat cerebrum, read-out: Cmax of THP
endpointLabel: Cmax (ng/mL)
Please give a number only; it is taken to be in ng/mL.

Q: Consider the molecule COc1cc2c(cc1OC)[C@@H]1Cc3ccc(OC)c(OC)c3CN1CC2 [THP, tetrahydropalmatine] and give its measured Cmax.
Ans: 250

----------
- assayNotes: Tissue distribution of THP, DHC and protopine in rat tissues after gastric gavage administration (HPLC-UV, non-compartmental analysis)
- Type: in vivo, Wistar male rats
- experimentalParameters: male, Wistar, po, 6.45 mg/kg, rat hippocampus, read-out: Tmax of THP
endpointLabel: Tmax (min)
Please give a number only; it is taken to be in min.

Q: Consider the compound COc1cc2c(cc1OC)[C@@H]1Cc3ccc(OC)c(OC)c3CN1CC2 [THP, tetrahydropalmatine] and give its measured Tmax.
Ans: 14.4
